Reported TGI values for the following molecules.
# Test system: CCRF-CEM leukemia
# measurement.protocol: NCI tumour cell line growth inhibition, 48 h

# molecule, assay.target, reported
records = [
    ("COc1ccc(/C=C/C(=O)c2ccc(O)c(CN3CCN(c4cc5c(cc4F)c(=O)c(C(=O)O)cn5C4CC4)CC3)c2)cc1", "CCRF-CEM leukemia", "> 100 µM"),
]

Which TGI value is on record for O=C1c2ccccc2OP(=O)(OCC(F)(F)F)OC1(C(F)(F)F)C(F)(F)F (stereo not given) ?
> 100 µM

Given CCCCCCC(=O)O[C@H]1CC[C@H]2[C@@H]3CCC4C/C(=N/NC(=O)c5cccc6c(=O)c7ccccc7[nH]c56)C=C(C)[C@]4(C)[C@H]3CC[C@]12C (stereo not given in full) , state its recorded TGI.
> 25 µM

Fill in: TGI of CC1CC2OC(=O)C(C)C2CC2(C)C(OC3OC(CO)C(O)C(O)C3O)OCCC12 (stereo not given) is ___
> 100 µM

Would you mind telling me what TGI value was observed for `CC(C)=CCC/C(=C/CC/C(=C\CCc1ccoc1)C(=O)O)C(=O)O` ?
> 100 µM
